assay: Analytical size exclusion chromatography (percent monomer); format: physicochemical; details: NEM-conjugated cysteine variants; SEC, Abs280 monomer region 5.5-6 minutes vs oligomer region 4-5.3 minutes

Molecule	Result Unit	Percent monomer
K40C: cysteine variant of P54AR4-83v2 (SEQ ID NOS: 199 and 237); NEM and VC-MMAF conjugates (conjugate, NEM or vcMMAF conjugate; EGFR binding FN3 domain, NEM and VC-MMAF conjugates) MLPAPKNLVVSEVTEDSARLSWDDPWAFYESFLIQYQESECVGEAIVLTVPGSERSYDLTGLKPGTEYTVSIYGVHNVYKDTNMRGLPLSAIFTT	%	97
P50C (conjugate, left off: small tags and cut ends) LPAPKNLVVSEVTEDSARLSWDDPWAFYESFLIQYQESEKVGEAIVLTVCGSERSYDLTGLKPGTEYTVSIYGVHNVYKDTNMRGLPLSAIFTT	%	100
L47C: cysteine variant of P54AR4-83v2 (SEQ ID NOS: 202 and 240); NEM and VC-MMAF conjugates (conjugate, NEM or vcMMAF conjugate; EGFR binding FN3 domain, NEM and VC-MMAF conjugates) MLPAPKNLVVSEVTEDSARLSWDDPWAFYESFLIQYQESEKVGEAIVCTVPGSERSYDLTGLKPGTEYTVSIYGVHNVYKDTNMRGLPLSAIFTT	%	100
A90C: cysteine variant of P54AR4-83v2 (SEQ ID NOS: 214 and 252); NEM and VC-MMAF conjugates (conjugate, NEM or vcMMAF conjugate; EGFR binding FN3 domain, NEM and VC-MMAF conjugates) MLPAPKNLVVSEVTEDSARLSWDDPWAFYESFLIQYQESEKVGEAIVLTVPGSERSYDLTGLKPGTEYTVSIYGVHNVYKDTNMRGLPLSCIFTT	%	100
V49C (conjugate, left off: small tags and cut ends) LPAPKNLVVSEVTEDSARLSWDDPWAFYESFLIQYQESEKVGEAIVLTCPGSERSYDLTGLKPGTEYTVSIYGVHNVYKDTNMRGLPLSAIFTT	%	88
I91C: cysteine variant of P54AR4-83v2 (SEQ ID NOS: 215 and 253); NEM and VC-MMAF conjugates (conjugate, NEM or vcMMAF conjugate; EGFR binding FN3 domain, NEM and VC-MMAF conjugates) MLPAPKNLVVSEVTEDSARLSWDDPWAFYESFLIQYQESEKVGEAIVLTVPGSERSYDLTGLKPGTEYTVSIYGVHNVYKDTNMRGLPLSACFTT	%	100

The values you see were collected from patent US11702475B2.
